Reference for the values: the NIST ThermoML archive (doi:10.1021/acs.jced.9b00377)

Quick reference for refractive index among some compounds
- method.description: refractive index (Na D-line) (dimensionless)
- test.parameters: 343.15 K; 100 kPa; Liquid; Standard Abbe refractometry
Give a plain numeric answer without units written out.

compound	refractive index
CCCC(=O)[O-].CN(C)C(=[NH2+])N(C)C [1,1,3,3-tetramethylguanidinium butanoate]	1.4693
CCCCCCC(=O)[O-].CN(C)C(=[NH2+])N(C)C [1,1,3,3-tetramethylguanidinium heptanoate]	1.4628
CCCCCC(=O)[O-].CN(C)C(=[NH2+])N(C)C [1,1,3,3-tetramethylguanidinium hexanoate]	1.4511
CCCCC(=O)[O-].CN(C)C(=[NH2+])N(C)C [1,1,3,3-tetramethylguanidinium pentanoate]	1.46

refractive index measured on CCCCCCCC(=O)[O-].CN(C)C(=[NH2+])N(C)C [1,1,3,3-tetramethylguanidinium octanoate] = 1.4463
